This collection of values is drawn from the supplement of paper PMC9732359.

# TEST SUMMARY: protein stability index of a GFP-peptide fusion (yeast GPS) (PSI 1-4); higher = more stable; sorted into four equal gates, so the index is relative within each strain
# MEASUREMENT CONTEXT: doa10∆
PROPERTY NAME: protein stability index
Answer field: number only, no words.

Q) Name the recorded protein stability index for IVKFKQKEEGRSFTKAI [YLR335W/NUP2] .
A) 3.13

Q) What measured protein stability index goes with ATPQEAQFYLGKRIAYV [RPL33B] ?
A) 1.64

Q) Look up protein stability index for this sequence: ENMWPFSYQEVEFKLPK [CDC53]
A) 1.83

Q) Param item = ERGQKVKNVKNSDLEFN [ARP9] ; retrieve measured protein stability index.
A) 3

Q) # get_value(readout='protein stability index', item= SYSPTSPSYSPTSPAYS [RPO21] )
A) 3

Q) Given TAVVNNAAPANVTGGKA [SWI1] , state its recorded protein stability index.
A) 2.64

Q) Suppose we examine the sequence AIITDDLDTVLKKDIES [SRP72] ; what protein stability index value has been reported?
A) 1.99

Q) Please look up its protein stability index: TSQHSDSLTQNNNNAPI [YOR098C/NUP1]
A) 2.72

Q) Requested field: protein stability index. Item: SVKSARTSTRGRGRGRG [SNF2]
A) 3.38

Q) Look up protein stability index: LKSASKETAPVIDTLAA [RPL28]
A) 2.07

Q) For the sequence SKEETVDFIKHSLSQAI [PRE3] , what protein stability index is on record?
A) 2.56

Q) # lookup: protein stability index of MAATATDKIGRSVPAPG [FAS2]
A) 2.82

Q) Tell me the measured protein stability index of TKLTTCKRELAFVKQKN [YIL149C/MLP2] , please.
A) 1.84

Q) Fill blank: measured protein stability index of the sequence TRPYILERARDVNIVNR [YCG1] is ____.
A) 3.29

Q) What measured protein stability index goes with SILEEKIAVLNNDKREI [SMC1] ?
A) 3.21

Q) Can you look up the measured protein stability index of RSRYRREIDALKKQLHV [YIL149C/MLP2] for me?
A) 3.24

Q) Tell me the measured protein stability index of ERIVVSYEYYNIKHKHT [SMC2] , please.
A) 1.63

Q) What does the data say about its protein stability index? Entry: VPTVPPSQSEEQKGQMA [MED4]
A) 2.78

Q) # lookup: protein stability index of NNPKIQTKDSVKEIVLP [IRR1]
A) 3.17

Q) Returns the measured protein stability index for the input sequence. Input: GPGGQAALRALARSGLR [RPS14B]
A) 2.41

Q) protein stability index lookup needed for ISNLTQEQVQDYVNKTN [FAS1] , thanks.
A) 2.34

Q) What does the record list as protein stability index for VRFIGDSVAAIGIPVNK [QCR2] ?
A) 2.83

Q) Name the reported protein stability index value associated with the sequence PWNDDYPFLLSFLGEAK [YML103C/NUP188]
A) 1.42

Q) Look up protein stability index for this sequence: CKSLISENEDTKDLLSK [CSE2]
A) 3.23

Q) Could you share which protein stability index value was measured for LYHHTTKTILSGTDGST [SRP72] ?
A) 3.04

Q) Could you tell me which protein stability index is on file for DTRSTQGPIVADKNCAK [PUP1] ?
A) 3.13

Q) What value of protein stability index has been reported for the following sequence? RGFGKINKQRVPLSDNA [RPL7A]
A) 3.03

Q) Data request, read-out protein stability index, for FMGTAFNQEGDYNFKYG [PRP8]
A) 3.02

Q) // returns reported protein stability index for input DESTIKRIKPNTEITQK [ECM29]
A) 2.88

Q) Would you mind telling me what protein stability index value was observed for GLLDESPNRLRVRTDDS [YML031W/NDC1] ?
A) 1.5

Q) For SLPFLLRHMPLASIPDI [SSN2] , what is its reported protein stability index?
A) 1.94

Q) # get_value(readout='protein stability index', item= QVPQVRSMSGQPPTNVQ [SNF5] )
A) 2.81

Q) For the sequence shown here, SKDVQQIDYKLESFQAV [RPS7A] , give the reported protein stability index.
A) 2.89

Q) Item under review: VMMDVDSSGVNDLHHSE [RPN3] . Reported protein stability index?
A) 3.34

Q) Given the entry QQQQQQQQQTSPPPQTH [SNF5] , report its measured protein stability index.
A) 2.77

Q) // query protein stability index value for entry LIGCIPYSKNAVEQLAG [YDL088C/ASM4]
A) 3.08

Q) What value of protein stability index has been recorded for this entry: NDKSEVLKVYSMINNSN [SRB8]
A) 2.9

Q) Which protein stability index value belongs to EELFTQLFHSMSIVFGD [UBP6] ?
A) 3.17

Q) Consider the sequence HASKAIGLPRHSLAYLL [RRP6] and give its measured protein stability index.
A) 2.24

Q) Entry SIMPDLYFYRNPEEVEQ [RPS0B] : reported protein stability index = ?
A) 2.86

Q) Reported protein stability index for QTIPIQIYGFEGLNQRN [YGR119C/NUP57] : what is it?
A) 2.64

Q) Data request, read-out protein stability index, for SGGGDSEVQRTMLELLN [RPT6]
A) 3.22

Q) What value of measured protein stability index is listed for QLDSKLMVFNDDTKNQD [YGR119C/NUP57] ?
A) 2.93

Q) Return reported protein stability index; argument: GILYMGQGEQVDDVLET [RPN1]
A) 1.23

Q) Given the entry WAVKEGPLAEEPIYGVQ [SNU114] , report its measured protein stability index.
A) 2.8

Q) Please report the recorded protein stability index for ELLRLANEQLKLFNRIV [CSN12] .
A) 2.3

Q) Give the measured protein stability index of SQKQTLIKKPLTVFYAI [SSN3] .
A) 2.1

Q) Entry under review: SQPKIGYGSNKKTKFLS [RPL32] . Reported protein stability index?
A) 1.23

Q) Entry under review: IIERYIKSKADAWVSAA [PRP8] . Reported protein stability index?
A) 1.86

Q) What protein stability index value was documented for this sequence, TLGNQMLSAHNIIESIA [YJR042W/NUP85] ?
A) 2.33
